assay: NCI Yeast Anticancer Drug Screen. Data for the bub3 strain (AID 167); conditions: S. cerevisiae bub3 mutant strain, at 50.0 µM, stronger effect = higher value
About 79,000 compounds went through this panel and 15% of them were active in at least one assay; those are over-represented in the sample as a whole.
Quick reference for growth inhibition among some compounds
experimental readout: growth inhibition (%)

>  <compound>
Cc1cc(S(=O)(=O)O)cc(C(C)(C)C)c1O

>  <experimental readout>
growth inhibition

>  <value units>
%

>  <observed measurement>
-2.45

$$$$
>  <compound>
C=CCCCCCCCCC(=O)NCCN1CCOCC1

>  <experimental readout>
growth inhibition

>  <value units>
%

>  <observed measurement>
91.8

$$$$
>  <compound>
Cc1csc(-c2ccncc2)n1

>  <experimental readout>
growth inhibition

>  <value units>
%

>  <observed measurement>
20.5

$$$$
>  <compound>
COC1=CC(=C(C#N)C(=Nc2ccccc2)SC)C=C(OC)C1=O

>  <experimental readout>
growth inhibition

>  <value units>
%

>  <observed measurement>
20.6

$$$$
>  <compound>
CCC(CC)C(=O)OC1CCCCC1C(C)C (configuration not stated)

>  <experimental readout>
growth inhibition

>  <value units>
%

>  <observed measurement>
3.05

$$$$
>  <compound>
COc1cccc2c1C(=N)c1c(O)c3c(c(O)c1C2=O)C[C@@](O)(C(=O)CO)C[C@@H]3OC1CC(N)C(O)C(C)O1 (some centres not stated)

>  <experimental readout>
growth inhibition

>  <value units>
%

>  <observed measurement>
-16.9

$$$$
>  <compound>
N#CC(c1ccccc1)C(C#N)c1ccc(Cl)cc1 (configuration not stated)

>  <experimental readout>
growth inhibition

>  <value units>
%

>  <observed measurement>
22.4

$$$$
>  <compound>
COc1ccccc1C1OC2=C(Nc3ccc(Cl)cc3N2)C1=O (configuration not stated)

>  <experimental readout>
growth inhibition

>  <value units>
%

>  <observed measurement>
-23.7

$$$$
>  <compound>
O=C(Nc1ccc(F)cc1)Nc1cccc(C(=O)O)c1

>  <experimental readout>
growth inhibition

>  <value units>
%

>  <observed measurement>
22.4

$$$$
>  <compound>
CCOc1ccc(C(CC)c2cc3c(cc2OC)OCO3)cc1 (configuration not stated)

>  <experimental readout>
growth inhibition

>  <value units>
%

>  <observed measurement>
6

$$$$
>  <compound>
O=C(Nc1cc(C(F)(F)F)ccc1Cl)C(=O)C(C(=O)c1ccc2ccccc2c1)C1OC(=O)c2ccccc21 (configuration not stated)

>  <experimental readout>
growth inhibition

>  <value units>
%

>  <observed measurement>
30.9

$$$$
>  <compound>
Nc1ncnc2c1nnn2C1CCC(CP(=O)(O)O)C1 (configuration not stated)

>  <experimental readout>
growth inhibition

>  <value units>
%

>  <observed measurement>
7.3

$$$$

====

experiment: NCI Yeast Anticancer Drug Screen. Data for the sgs1 mgt1 strain (AID 161);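 note: 0% = growth of cultures given vehicle only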; details: S. cerevisiae sgs1 mgt1 strain, at 50.0 µM, stronger effect = higher value
Compounds without any hit were thinned out: in the full panel of roughly 79,000, 15% have a hit. Active and inactive are the calls of the source. Cut-off read from the data, not from the text of the source: active = growth inhibition above about 70%; inactive = the rest.
Listed molecules paired with reported growth inhibition

>  <molecule>
COc1cc2c(cc1OC)-c1cc3cc(OC)c(OC)cc3c(C)[n+]1CC2 (tested in a mixture with another compound)

>  <growth inhibition>
11.9% (inactive)

$$$$
>  <molecule>
CS(=O)(=O)CC1=NC(=N)N=C1CS(C)(=O)=O

>  <growth inhibition>
-8.95% (inactive)

$$$$
>  <molecule>
CC(C)C1=C(Cc2ccccc2)C(=O)O/C1=C\c1ccc(O)c(Cl)c1

>  <growth inhibition>
28.2% (inactive)

$$$$
>  <molecule>
CCOC(=O)C(Cc1ccc(O)cc1)NC(=O)C(CSC(c1ccccc1)(c1ccccc1)c1ccccc1)NC(c1ccccc1)(c1ccccc1)c1ccccc1 (stereo not given)

>  <growth inhibition>
-14.8% (inactive)

$$$$
>  <molecule>
CC(C)=CCC(C)c1ccccn1 (stereo not given)

>  <growth inhibition>
10.3% (inactive)

$$$$

====

Here the recorded growth inhibition is given for each entry.
test: NCI Yeast Anticancer Drug Screen. Data for the mlh1 rad18 strain (AID 175); conditions: S. cerevisiae mlh1 rad18 strain growth inhibition; at 50.0 µM; stronger effect = higher value
This is part of a sample that, as a whole, favours compounds with a hit. Of some 79,000 tested, about 15% had one in any assay.

>  <molecule>
N#CCCN(Cc1ccccc1)C(=S)Nc1cccc(C(F)(F)F)c1

>  <value units>
%

>  <growth inhibition>
78

$$$$
>  <molecule>
CC1(C)C2(SCCS2)C(C)(C)C12SCCS2

>  <value units>
%

>  <growth inhibition>
5.4

$$$$
>  <molecule>
C/C(=N\N)C1C(=O)c2ccccc2C1=O

>  <value units>
%

>  <growth inhibition>
11.3

$$$$
>  <molecule>
COC1=CC(=O)C(=O)C=C1C(C)(C)C

>  <value units>
%

>  <growth inhibition>
9.55

$$$$
>  <molecule>
O=C(NCCO)Nc1ccc2c(c1)OCCOCCOCCOCCO2

>  <value units>
%

>  <growth inhibition>
5.9

$$$$
>  <molecule>
O=[N+]([O-])c1ccc(N=Cc2ccc(O)cc2)cc1

>  <value units>
%

>  <growth inhibition>
-67.2

$$$$
>  <molecule>
CC1(O)c2ccccc2-c2nc3ccccc3nc21 (centres undefined)

>  <value units>
%

>  <growth inhibition>
-15.4

$$$$
>  <molecule>
COc1ccc(C2SCC(=O)N2c2nncs2)cc1F (centres undefined)

>  <value units>
%

>  <growth inhibition>
20.2

$$$$
>  <molecule>
CCOC(=O)Cn1c(=O)n(C)c(=O)c2c1ncn2Cc1ccccc1

>  <value units>
%

>  <growth inhibition>
-14.4

$$$$
>  <molecule>
COc1cccc(C(=O)c2ccc(OC)cc2C(=O)O)c1

>  <value units>
%

>  <growth inhibition>
0.85

$$$$
>  <molecule>
COC(=O)CCNC(C(=O)O)C(C)(C)SCCC(=O)OC (centres undefined)

>  <value units>
%

>  <growth inhibition>
-20.4

$$$$
>  <molecule>
CNc1ccc(C)cc1S(=O)(=O)c1ccccc1[N+](=O)[O-]

>  <value units>
%

>  <growth inhibition>
16.1

$$$$
>  <molecule>
O/N=C(/C(=N\O)c1ccco1)c1ccco1

>  <value units>
%

>  <growth inhibition>
-8.3

$$$$
>  <molecule>
c1ccc2c(c1)c1c(n2CCOCCN2CCCCC2)CCCC1

>  <value units>
%

>  <growth inhibition>
19.8

$$$$
>  <molecule>
CC(=O)OC(OC(C)=O)c1ncccc1C(=O)OC(C)C

>  <value units>
%

>  <growth inhibition>
-21.7

$$$$
>  <molecule>
CCCCNC(=O)Oc1c(Cl)cc(Cl)c(Cl)c1[N+](=O)[O-]

>  <value units>
%

>  <growth inhibition>
21.2

$$$$
>  <molecule>
CC(=O)NC1C(OCC(=O)NC(C)C(=O)NC(CCC(=O)NCCCCCNc2ccc([N+](=O)[O-])c3[nH]c4ccccc4c(=O)c23)C(N)=O)C(O)C(CO)OC1(C)OCc1ccccc1 (centres undefined)

>  <value units>
%

>  <growth inhibition>
18.1

$$$$
>  <molecule>
COc1ccc(SC2=CC(=O)c3ccccc3C2=O)cc1

>  <value units>
%

>  <growth inhibition>
30.6

$$$$
>  <molecule>
CC(C)C1CCC2(C)C(CCC3C4(C)CCCC32OC4=O)C1 (centres undefined)

>  <value units>
%

>  <growth inhibition>
23.7

$$$$
>  <molecule>
O=C(O)C1C2CCC3C(C(=O)O)C3C21 (centres undefined)

>  <value units>
%

>  <growth inhibition>
-0.8

$$$$
>  <molecule>
O=C(O)/C(=C/c1ccc([N+](=O)[O-])cc1)c1ccc([N+](=O)[O-])cc1

>  <value units>
%

>  <growth inhibition>
1.55

$$$$
>  <molecule>
CCN(CC)C1Oc2cc3c(cc2C(c2cccc(OC)c2OC)C1C)OCO3 (centres undefined)

>  <value units>
%

>  <growth inhibition>
63.3

$$$$
>  <molecule>
O=C(NCc1ccco1)Nc1ccc(Cl)cc1

>  <value units>
%

>  <growth inhibition>
-2.7

$$$$
>  <molecule>
CCN(CC)C(=O)c1ccccc1C

>  <value units>
%

>  <growth inhibition>
0.45

$$$$

====

assay: NCI Yeast Anticancer Drug Screen. Data for the rad50 strain (AID 155);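 note: 0% = growth of vehicle-only cultures of the same strain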; settings: S. cerevisiae rad50 strain growth inhibition; at 50.0 µM; stronger effect = higher value
Compounds without any hit were thinned out: in the full panel of roughly 79,000, 15% have a hit.

>  <compound>
COc1cc(C2OC[C@@H]3C(=O)OC[C@H]23)cc(O)c1OC (stereo partly drawn)

>  <value units>
%

>  <growth inhibition>
3.35

$$$$
>  <compound>
O=C(O)/C=C/C(=O)Nc1cc(Cl)cc2c1-c1c(Cl)cc(Cl)cc1C2O (stereo not drawn)

>  <value units>
%

>  <growth inhibition>
83.7

$$$$
>  <compound>
O=C(O)c1ccc2ccccc2c1C(=O)O

>  <value units>
%

>  <growth inhibition>
6.4

$$$$
>  <compound>
CC(=O)O[C@]12CCCCCCC1C1(O)C(O)CCC[C@H]12 (stereo partly drawn)

>  <value units>
%

>  <growth inhibition>
-23.6

$$$$
>  <compound>
CS(=O)(=O)OCC(Cc1ccccc1)N1C(=O)c2ccccc2C1=O (stereo not drawn)

>  <value units>
%

>  <growth inhibition>
1.3

$$$$
>  <compound>
CC1SC2(C(=O)Nc3ccccc32)N(c2ccc(O)cc2)C1=O (stereo not drawn)

>  <value units>
%

>  <growth inhibition>
6.25

$$$$
>  <compound>
CCn1cnc2c(=O)n(C)c(=O)n(C)c21

>  <value units>
%

>  <growth inhibition>
-31.8

$$$$
>  <compound>
NC(CC1C(=O)Nc2ccccc21)C(=O)O (stereo not drawn)

>  <value units>
%

>  <growth inhibition>
-32.5

$$$$
>  <compound>
CCCCCC(O)c1ccccc1 (stereo not drawn)

>  <value units>
%

>  <growth inhibition>
22.7

$$$$
>  <compound>
Cc1c2oc3c(C)ccc(C(=O)NCCc4ccco4)c3nc-2c(C(=O)NCCc2ccco2)c(N)c1=O

>  <value units>
%

>  <growth inhibition>
39.5

$$$$
>  <compound>
COC1=C(N)C(=O)c2nc(C)ccc2C1=O

>  <value units>
%

>  <growth inhibition>
45.8

$$$$
>  <compound>
O=C(NC(Nc1ccc(F)cc1)(C(F)(F)F)C(F)(F)F)C(C(F)(F)F)C(F)(F)F

>  <value units>
%

>  <growth inhibition>
87.4

$$$$
>  <compound>
CCOC(=O)C1C(=O)CC(=O)C(C(=O)OCC)C1C1CC=CCC1 (stereo not drawn)

>  <value units>
%

>  <growth inhibition>
51

$$$$
>  <compound>
Cn1c(=O)c2c(nc(Br)n2CC(=O)CF)n(C)c1=O

>  <value units>
%

>  <growth inhibition>
13.2

$$$$
>  <compound>
CN(C)c1nc(=NCc2ccncc2)ss1

>  <value units>
%

>  <growth inhibition>
-38.2

$$$$
>  <compound>
O=[N+]([O-])c1cccnc1Sc1ncccn1

>  <value units>
%

>  <growth inhibition>
-7.25

$$$$
>  <compound>
CC(C)Oc1ccc(N2C(=O)C(C)CNC2=S)cc1 (stereo not drawn)

>  <value units>
%

>  <growth inhibition>
-13.9

$$$$
>  <compound>
COc1ccc2c(c1)OC(C)(C)C(c1ccccc1)=C2c1ccc(OCCN2CCCC2)cc1

>  <value units>
%

>  <growth inhibition>
99.6

$$$$
>  <compound>
Cc1ccc(S(=O)(=O)N/N=C(\C(=O)Nc2cccc([N+](=O)[O-])c2)c2nc3ccc([N+](=O)[O-])cc3[nH]c2=O)cc1

>  <value units>
%

>  <growth inhibition>
-3

$$$$
>  <compound>
NC1=NC(=O)N(C2CC(O)C(COP(=O)(O)O)O2)C(I)C1 (stereo not drawn)

>  <value units>
%

>  <growth inhibition>
31.9

$$$$
>  <compound>
COc1cc(C=Nc2ccc(Cl)cc2)ccc1O

>  <value units>
%

>  <growth inhibition>
-35.9

$$$$
>  <compound>
CC(C)(C)c1nc2c(o1)C(=Nc1ccc(F)cc1)c1ccccc1C2=O

>  <value units>
%

>  <growth inhibition>
8.6

$$$$
>  <compound>
CC1CCC2C(C)C3C(CC4C5CC=C6CC(O)CCC6(C)C5CCC43COC(=O)c3ccccc3)N2C1 (stereo not drawn)

>  <value units>
%

>  <growth inhibition>
44.4

$$$$
